Tgt: insulin receptor kinase (Homo sapiens)
Sequence (P06213 28-1382): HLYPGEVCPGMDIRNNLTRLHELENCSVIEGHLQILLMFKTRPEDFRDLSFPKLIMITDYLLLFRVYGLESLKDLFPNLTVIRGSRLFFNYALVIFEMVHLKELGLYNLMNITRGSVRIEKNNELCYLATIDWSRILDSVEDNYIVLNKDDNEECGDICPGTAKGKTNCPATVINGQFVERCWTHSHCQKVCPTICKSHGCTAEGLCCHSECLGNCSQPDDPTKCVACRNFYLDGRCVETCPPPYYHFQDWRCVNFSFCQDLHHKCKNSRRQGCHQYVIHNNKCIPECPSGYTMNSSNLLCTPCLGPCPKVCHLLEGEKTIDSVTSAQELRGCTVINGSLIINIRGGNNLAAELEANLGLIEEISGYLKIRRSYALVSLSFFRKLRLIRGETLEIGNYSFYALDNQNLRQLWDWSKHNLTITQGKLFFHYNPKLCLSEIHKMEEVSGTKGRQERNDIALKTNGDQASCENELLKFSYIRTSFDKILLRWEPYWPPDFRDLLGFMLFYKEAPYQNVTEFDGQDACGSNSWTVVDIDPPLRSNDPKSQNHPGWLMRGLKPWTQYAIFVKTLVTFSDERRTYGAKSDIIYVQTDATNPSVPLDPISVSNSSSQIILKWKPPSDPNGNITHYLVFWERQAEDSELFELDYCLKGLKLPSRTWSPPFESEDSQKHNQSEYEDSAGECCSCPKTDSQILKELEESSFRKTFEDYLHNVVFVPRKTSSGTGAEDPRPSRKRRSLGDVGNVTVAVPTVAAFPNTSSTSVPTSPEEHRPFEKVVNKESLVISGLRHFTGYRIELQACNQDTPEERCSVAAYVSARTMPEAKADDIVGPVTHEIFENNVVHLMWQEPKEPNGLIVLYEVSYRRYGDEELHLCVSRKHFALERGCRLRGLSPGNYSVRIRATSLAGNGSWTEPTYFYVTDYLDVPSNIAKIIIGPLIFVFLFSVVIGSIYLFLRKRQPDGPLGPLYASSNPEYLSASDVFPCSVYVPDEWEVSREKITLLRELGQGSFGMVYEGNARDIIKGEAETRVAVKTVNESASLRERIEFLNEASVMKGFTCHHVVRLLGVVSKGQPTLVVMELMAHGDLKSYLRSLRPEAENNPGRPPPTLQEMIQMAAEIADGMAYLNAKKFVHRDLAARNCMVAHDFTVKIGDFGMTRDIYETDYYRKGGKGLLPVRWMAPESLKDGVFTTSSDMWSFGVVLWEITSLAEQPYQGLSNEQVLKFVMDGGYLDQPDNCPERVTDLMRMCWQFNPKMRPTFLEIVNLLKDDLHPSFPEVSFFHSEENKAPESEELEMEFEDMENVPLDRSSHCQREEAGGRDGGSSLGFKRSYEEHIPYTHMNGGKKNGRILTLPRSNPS
Measured Attribute: pIC50
Keep in mind that pIC50 stands for -log10 of concentration in molar terms.

## Input What reported pIC50 corresponds to O=C1OC(c2ccc(O)c(O)c2)=C/C1=C\c1ccc(O)c(O)c1 [BE‐23372M] on insulin receptor kinase (Homo sapiens)?
## Output 5.48

---

Tgt: epidermal growth factor (EGF) receptor kinase (Homo sapiens)
Sequence (P00533 25-1210): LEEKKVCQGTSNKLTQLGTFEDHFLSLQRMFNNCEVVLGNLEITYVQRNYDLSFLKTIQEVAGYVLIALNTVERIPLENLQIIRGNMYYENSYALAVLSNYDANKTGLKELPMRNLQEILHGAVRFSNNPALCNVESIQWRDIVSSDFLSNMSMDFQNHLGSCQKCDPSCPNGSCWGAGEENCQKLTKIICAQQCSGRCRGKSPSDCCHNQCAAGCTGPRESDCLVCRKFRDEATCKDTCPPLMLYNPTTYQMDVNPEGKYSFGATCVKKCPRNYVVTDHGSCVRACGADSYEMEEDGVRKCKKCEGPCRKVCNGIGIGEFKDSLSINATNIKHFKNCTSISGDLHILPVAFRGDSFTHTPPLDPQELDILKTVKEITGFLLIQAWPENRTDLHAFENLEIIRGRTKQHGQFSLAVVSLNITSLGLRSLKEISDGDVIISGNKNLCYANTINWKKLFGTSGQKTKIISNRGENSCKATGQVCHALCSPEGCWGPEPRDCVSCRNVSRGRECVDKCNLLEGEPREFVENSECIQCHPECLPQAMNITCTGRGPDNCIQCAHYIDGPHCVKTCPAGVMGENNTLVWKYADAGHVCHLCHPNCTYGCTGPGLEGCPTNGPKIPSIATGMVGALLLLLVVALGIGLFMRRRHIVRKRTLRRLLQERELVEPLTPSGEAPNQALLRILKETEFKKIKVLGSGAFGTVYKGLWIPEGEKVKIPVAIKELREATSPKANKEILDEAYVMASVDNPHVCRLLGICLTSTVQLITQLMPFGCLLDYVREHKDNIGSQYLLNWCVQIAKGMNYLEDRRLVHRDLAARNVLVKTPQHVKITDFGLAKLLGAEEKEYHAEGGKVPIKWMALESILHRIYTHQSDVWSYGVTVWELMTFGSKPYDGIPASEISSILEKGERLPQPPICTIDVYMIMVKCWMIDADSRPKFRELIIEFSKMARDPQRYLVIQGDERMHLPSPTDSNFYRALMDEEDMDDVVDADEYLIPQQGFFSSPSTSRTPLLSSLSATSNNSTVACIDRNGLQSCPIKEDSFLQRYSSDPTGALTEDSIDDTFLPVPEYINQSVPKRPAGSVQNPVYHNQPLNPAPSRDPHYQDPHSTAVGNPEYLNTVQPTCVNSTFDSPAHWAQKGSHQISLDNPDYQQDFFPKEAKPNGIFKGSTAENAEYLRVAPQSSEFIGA
Measured Attribute: IC50 (µM)
Report the value in µM with no unit label.

## Input # query: IC50 | item O=C1OC(c2ccc(O)c(O)c2)=C/C1=C\c1ccc(O)c(O)c1 [BE‐23372M] | system: epidermal growth factor (EGF) receptor kinase (Homo sapiens)
## Output 0.03
